biological target: Muscarinic acetylcholine receptor M2 (Homo sapiens, UniProt P08172); format: functional, cell-based; further: assay procedure not described here
Sequence (P08172 whole entry): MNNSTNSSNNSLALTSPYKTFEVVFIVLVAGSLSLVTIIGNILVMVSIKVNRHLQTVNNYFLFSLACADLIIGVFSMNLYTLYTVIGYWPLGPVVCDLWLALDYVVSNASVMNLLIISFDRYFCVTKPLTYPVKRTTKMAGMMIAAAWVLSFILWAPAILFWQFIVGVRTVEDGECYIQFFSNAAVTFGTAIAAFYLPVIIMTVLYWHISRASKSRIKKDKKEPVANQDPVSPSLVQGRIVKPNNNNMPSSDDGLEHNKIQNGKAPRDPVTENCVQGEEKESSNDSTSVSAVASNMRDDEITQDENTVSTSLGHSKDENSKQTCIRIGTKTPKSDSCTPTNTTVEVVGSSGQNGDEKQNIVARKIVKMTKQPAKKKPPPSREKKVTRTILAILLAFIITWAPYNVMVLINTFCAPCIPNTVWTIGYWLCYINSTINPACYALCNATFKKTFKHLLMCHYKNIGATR
Test Readout: AC50

Compound	Meas Value
Clc1ccc2nsnc2c1NC1=NCCN1	> 30 µM

Respectfully, I request AC50 for each entry included below.
1. CCOC(=O)OC(C)OC1=C(C(=O)Nc2ccccn2)N(C)S(=O)(=O)c2ccccc21 (stereo not drawn)
2. CC(C)=CCC/C(C)=C/C=C/C(C)=C/C=C/C(C)=C/C=C/C=C(C)/C=C/C=C(C)/C=C/C=C(\C)CCC=C(C)C
3. COc1ccccc1N1CCN(CCCNc2cc(=O)n(C)c(=O)n2C)CC1
4. CCC(C(=O)O)c1ccc(N2Cc3ccccc3C2=O)cc1 (stereo not drawn)
5. c1cnc(N2CCN(Cc3ccc4c(c3)OCO4)CC2)nc1

1. > 30 µM
2. > 30 µM
3. > 30 µM
4. > 30 µM
5. > 30 µM

Respectfully, I request AC50 for each entry included below.
1. CCOC(=O)[C@H](CCc1ccccc1)N[C@@H](C)C(=O)N1C(=O)N(C)C[C@H]1C(=O)O
2. COC1=C(OC)C(=O)C(C/C=C(\C)CC/C=C(\C)CC/C=C(\C)CC/C=C(\C)CC/C=C(\C)CC/C=C(\C)CC/C=C(\C)CC/C=C(\C)CC/C=C(\C)CCC=C(C)C)=C(C)C1=O
3. CCCCCNC(=N)N/N=C/c1c[nH]c2ccc(OC)cc12
4. CCCSc1ccc2nc(NC(=O)OC)[nH]c2c1
5. CC(C)OC(=O)CCC/C=C\C[C@@H]1[C@@H](CC[C@@H](O)CCc2ccccc2)[C@H](O)C[C@@H]1O
6. C[C@]1(O)CC[C@H]2[C@@H]3CCC4=CC(=O)CC[C@]4(C)[C@@]3(F)[C@@H](O)C[C@@]21C
7. O=C(NCCNCC(O)COc1ccc(O)cc1)N1CCOCC1 (stereo not drawn)
8. C/C(O)=C(\C#N)C(=O)Nc1ccc(C(F)(F)F)cc1 [TERIFLUNOMIDE]

1. > 30 µM
2. > 30 µM
3. > 30 µM
4. > 10 µM
5. > 30 µM
6. > 10 µM
7. > 30 µM
8. > 30 µM

This collection of values is drawn from ChEMBL document CHEMBL5291721.
